molecular target: FP1 (Plasmodium falciparum); construct: native falcipain 1 in live parasites (mature schizonts); assay: cell-based; conditions: live parasites, 30 min pretreatment
Sequence (P25805 whole entry): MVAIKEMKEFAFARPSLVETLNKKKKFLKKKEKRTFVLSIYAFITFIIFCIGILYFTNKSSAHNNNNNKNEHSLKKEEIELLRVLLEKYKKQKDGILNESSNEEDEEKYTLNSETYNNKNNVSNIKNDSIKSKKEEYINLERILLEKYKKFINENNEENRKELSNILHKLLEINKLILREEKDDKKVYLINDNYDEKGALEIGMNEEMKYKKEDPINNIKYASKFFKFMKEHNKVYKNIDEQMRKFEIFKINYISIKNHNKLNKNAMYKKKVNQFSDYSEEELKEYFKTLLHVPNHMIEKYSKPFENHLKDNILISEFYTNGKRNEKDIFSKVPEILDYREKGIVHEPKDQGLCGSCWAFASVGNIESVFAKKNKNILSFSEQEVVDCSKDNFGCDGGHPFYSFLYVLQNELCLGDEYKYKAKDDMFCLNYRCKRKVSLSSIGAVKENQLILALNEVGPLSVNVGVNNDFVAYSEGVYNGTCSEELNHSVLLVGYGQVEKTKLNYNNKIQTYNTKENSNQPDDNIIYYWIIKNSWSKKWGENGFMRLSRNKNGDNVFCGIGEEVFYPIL
measureName: IC50
Number first, unit second: that is the form wanted.

# input I am curious: what IC50 value has been reported for O=C(N[C@H](/C=C/S(=O)(=O)c1ccccc1)CCc1ccccc1)[C@@H]1CCCCN1 [hPro‐hPhe‐VS] ?
# output 350 nM

----------
molecular target: DPAP3 (Plasmodium falciparum); assay: cell-based; parameters: native enzyme in live parasites (mature schizonts); species or system P. falciparum mature schizonts in red blood cells; competitive activity-based probe FY01 labelling in intact parasites, in-gel fluorescence densitometry; conditions: live parasites, 30 min pretreatment
Sequence (Q8I1Y2 entry or part of it): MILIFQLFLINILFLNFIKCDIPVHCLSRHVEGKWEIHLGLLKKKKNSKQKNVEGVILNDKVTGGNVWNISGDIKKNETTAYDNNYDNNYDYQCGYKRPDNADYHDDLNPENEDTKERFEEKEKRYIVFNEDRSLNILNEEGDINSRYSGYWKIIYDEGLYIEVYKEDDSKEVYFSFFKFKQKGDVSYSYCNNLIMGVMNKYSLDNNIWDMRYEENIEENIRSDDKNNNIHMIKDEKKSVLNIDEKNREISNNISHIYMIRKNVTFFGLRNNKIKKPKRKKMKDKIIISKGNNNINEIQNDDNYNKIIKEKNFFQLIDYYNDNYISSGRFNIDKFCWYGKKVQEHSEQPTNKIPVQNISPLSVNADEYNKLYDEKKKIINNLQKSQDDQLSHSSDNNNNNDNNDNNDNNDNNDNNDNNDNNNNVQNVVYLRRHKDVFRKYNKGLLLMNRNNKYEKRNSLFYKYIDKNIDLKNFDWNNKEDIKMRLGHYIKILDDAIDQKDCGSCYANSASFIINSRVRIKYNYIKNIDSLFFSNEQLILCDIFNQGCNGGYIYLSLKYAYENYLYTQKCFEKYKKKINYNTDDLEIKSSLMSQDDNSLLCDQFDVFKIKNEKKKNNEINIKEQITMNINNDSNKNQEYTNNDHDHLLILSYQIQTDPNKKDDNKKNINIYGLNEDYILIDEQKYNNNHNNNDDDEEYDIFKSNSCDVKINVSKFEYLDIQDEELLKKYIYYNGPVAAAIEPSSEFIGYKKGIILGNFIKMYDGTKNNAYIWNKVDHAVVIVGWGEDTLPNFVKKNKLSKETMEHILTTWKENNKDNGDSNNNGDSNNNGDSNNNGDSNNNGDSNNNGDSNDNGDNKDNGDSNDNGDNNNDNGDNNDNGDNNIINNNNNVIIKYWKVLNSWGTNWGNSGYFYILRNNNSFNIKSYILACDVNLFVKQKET
measureName: IC50 (nM)
Reply numerically in nM, unit not repeated.

# input Give IC50 (DPAP3 (Plasmodium falciparum)) of the following compound: N[C@@H](Cc1c[nH]c2ccccc12)C(=O)N[C@H](/C=C/S(=O)(=O)c1ccccc1)CCCCOCc1ccccc1
# output 760

# input Give IC50 (DPAP3 (Plasmodium falciparum)) of the following compound: N[C@H](Cc1c[nH]c2ccccc12)C(=O)N[C@H](/C=C/S(=O)(=O)c1ccccc1)CCCCOCc1ccccc1
# output 2700

# input Give IC50 (DPAP3 (Plasmodium falciparum)) of the following compound: N[C@@H](Cc1ccc(O)c([N+](=O)[O-])c1)C(=O)N[C@H](/C=C/S(=O)(=O)c1ccccc1)CCCCOCc1ccccc1
# output 730

# input Give IC50 (DPAP3 (Plasmodium falciparum)) of the following compound: O=C(N[C@H](/C=C/S(=O)(=O)c1ccccc1)CCc1ccccc1)[C@@H]1CCCCN1
# output 160
